Readings of PMA-induced TNFα release from U-937 cells, percent inhibition, 1 µg/ml for the listed binders
Molecular target: T1, human iRhom2, endogenously expressed (human, UniProt Q6PJF5 1-856)
T1 sequence: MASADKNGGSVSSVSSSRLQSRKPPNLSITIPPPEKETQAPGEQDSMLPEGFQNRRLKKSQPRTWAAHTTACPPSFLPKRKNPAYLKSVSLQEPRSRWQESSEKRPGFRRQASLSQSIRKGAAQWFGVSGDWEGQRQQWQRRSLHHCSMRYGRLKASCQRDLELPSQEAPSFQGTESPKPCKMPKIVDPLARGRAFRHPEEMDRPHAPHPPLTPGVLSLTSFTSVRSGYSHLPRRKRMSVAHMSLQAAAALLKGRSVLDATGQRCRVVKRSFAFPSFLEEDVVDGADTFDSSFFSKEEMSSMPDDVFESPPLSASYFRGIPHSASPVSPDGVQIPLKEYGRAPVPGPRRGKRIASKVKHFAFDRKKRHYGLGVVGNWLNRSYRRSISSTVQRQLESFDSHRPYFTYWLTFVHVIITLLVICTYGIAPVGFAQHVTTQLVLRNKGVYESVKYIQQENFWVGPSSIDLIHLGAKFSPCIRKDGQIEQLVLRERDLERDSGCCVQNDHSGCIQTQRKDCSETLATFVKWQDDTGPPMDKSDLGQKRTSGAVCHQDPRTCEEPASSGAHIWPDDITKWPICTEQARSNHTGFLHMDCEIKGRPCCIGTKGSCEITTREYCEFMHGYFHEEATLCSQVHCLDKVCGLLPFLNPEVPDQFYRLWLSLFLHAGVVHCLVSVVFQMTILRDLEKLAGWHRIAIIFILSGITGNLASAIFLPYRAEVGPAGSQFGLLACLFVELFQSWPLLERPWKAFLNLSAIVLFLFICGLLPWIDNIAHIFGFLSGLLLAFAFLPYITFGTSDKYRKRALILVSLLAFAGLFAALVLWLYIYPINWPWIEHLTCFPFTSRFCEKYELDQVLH
Experiment: cell-based or functional assay
Write down the numeric answer in % and omit the unit.

Previously resolved entries follow.
[
  {
    "binder": "antibody 3 (antibody, V domains shown, mouse IgG, kappa light chain; also called clone #3; purified antibody 3) VH: QVTLKESGPGILQPSQTLSLTCSFSGFSLTTFAMGIGWVRQPSGKGLEWLAHIWWDGEKYNNPVLKSRLTISKDTSKNQVFLRIANVDTPDTATYYCARISSIYYIIDNWGQGTSVTVSS VL: DIVLTQSPATLSVTPGHSVSLSCRASQSISNNLHWYQKKSHESPRLLIKYVSQSISGIPSRFSGSGSGTDFTLSINSVETEDFGMYFCQQSYNWPLTFGAGTKLELK",
    "observedMeasurement": 65.9
  },
  {
    "binder": "antibody 43 (antibody, V domains shown, mouse IgG, kappa light chain; also called clone #43; purified antibody 43) VH: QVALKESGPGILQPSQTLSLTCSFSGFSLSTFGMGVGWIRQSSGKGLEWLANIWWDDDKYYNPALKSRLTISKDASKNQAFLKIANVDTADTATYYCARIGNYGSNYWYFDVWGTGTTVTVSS VL: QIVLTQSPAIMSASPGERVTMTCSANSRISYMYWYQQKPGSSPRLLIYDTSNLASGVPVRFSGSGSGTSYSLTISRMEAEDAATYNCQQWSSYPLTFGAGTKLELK",
    "observedMeasurement": 78.3
  }
]

Alright, here's another binder for you.
Exam item: # get_value(readout='PMA-induced TNFα release from U-937 cells, percent inhibition, 1 µg/ml', item= antibody 22 (antibody, V domains shown, mouse IgG, kappa light chain; also called clone #22; purified antibody 22) VH: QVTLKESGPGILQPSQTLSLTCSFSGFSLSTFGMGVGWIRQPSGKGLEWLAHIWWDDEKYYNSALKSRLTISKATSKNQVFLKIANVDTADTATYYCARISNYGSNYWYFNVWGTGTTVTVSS VL: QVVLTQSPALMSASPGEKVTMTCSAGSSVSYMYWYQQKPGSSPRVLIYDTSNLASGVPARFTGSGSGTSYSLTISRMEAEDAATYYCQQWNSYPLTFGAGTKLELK )
Marked response: 86.1
